Tested on: isolated guinea pig trachea, agonist calcium ionophore A23187
procedure_details: antagonist of calcium ionophore A23187-induced contraction of isolated guinea pig trachea
Type: cell-based
condition_details: Cavia porcellus, 37° C., read-out: Anticontractile action (trachea), Ca ionophore: concentration range for dilatation corresponding to ED50 range
Description: 3. Activity as antagonist of the contraction of isolated guinea pig trachea The compounds of the formula I are used as antagonists of the contraction of isolated guinea pig trachea. The agonists employed were PGF2α (Upjohn, Germany), calcium ionophore A23187 (Calbiochem, Bad Soden, Germany), and substance P (American Peptide Comp., USA): […]
readout_name: EC50

test_smiles=CCOP(=O)(CCCCn1cnc2c1c(=O)n(CC)c(=O)n2C)OCC readout_name=EC50 value_observed="> 10 µg/mL"
test_smiles=CCOP(=O)(CCCn1c(=O)c2c(ncn2CCOC)n(C)c1=O)OCC readout_name=EC50 value_observed="> 10 µg/mL"
test_smiles=CCCn1cnc2c1c(=O)n(CCCCP(=O)(OCC)OCC)c(=O)n2CC readout_name=EC50 value_observed="10 µg/mL"

Provide EC50 values for the following items, in order.
1. CCOP(=O)(CCCCn1c(=O)c2c(ncn2Cc2ccccc2)n(C)c1=O)OCC
2. CCOP(=O)(CCCCn1c(=O)c2c(ncn2CC)n(C)c1=O)OCC
3. CCOP(=O)(CCCn1cnc2c1c(=O)[nH]c(=O)n2C)OCC

["> 10 µg/mL", "10 µg/mL", "> 10 µg/mL"]
